TARGET OR TEST SYSTEM: Cytochrome P450 2C9 (Homo sapiens)
EXPERIMENTAL DETAILS: Cytochrome panel assay with activity outcomes
CONDITION: recombinant CYP, pro-luciferin dealkylation, luminescence, p450-cyp2c9; series mostly up to 57.1 µM
In all, about 16,000 compounds went through this assay and about 4,000 (25%) were called active. Roughly 26% stayed inconclusive and do not appear here. The call rests on the fitted dose curve; in most records, active means well fitted curve in the direction sought with a large enough effect; inconclusive means small, poorly fitted or top-dose-only effect, or effect the other way; inactive means no such curve, though single readings can be large or run the other way. The list is a sample of the results.
Possible outcomes: 1.0 (active), 0.0 (inactive)

| COMPOUND | CLASS |
| --- | --- |
| C=CCCC(=O)Nc1nc(C)c(-c2csc(Nc3ccc(Cl)cc3)n2)s1 | 1.0 |
| Cc1ccc(S(=O)(=O)NCCSc2nnnn2C)cc1 | 0.0 |
| COc1ccc(CCCC(=O)NC2CCCCC2)cc1 | 1.0 |
| CCOC(=O)N1CCN(C(=O)c2cc(-c3ccc(F)cc3)[nH]c2C)CC1 | 0.0 |
| CCOC(=O)N1CCN(C(=O)c2ccc3nc(SCc4ccc(F)cc4)n(C)c3c2)CC1 | 1.0 |
| Fc1ccc(SCCc2ccncc2)cc1 | 1.0 |
| CN1CC[C@@]2(CCCN(C(=O)c3cc(C(F)(F)F)cc(C(F)(F)F)c3)C2)C1 | 0.0 |
| Cc1nc(NC(=O)c2ccccc2)sc1-c1csc(Nc2cccc(Cl)c2)n1 | 1.0 |
| CN1c2ccccc2Oc2c(c(=O)n(C)c(=O)n2C)C1c1cccc([N+](=O)[O-])c1 (stereo not drawn) | 1.0 |
| CC1CN(C(=O)COc2ncnc3ccccc23)CC(C)O1 (stereo not drawn) | 0.0 |
| CCNc1ncc2nc(C)c(=O)n(C3CC3)c2n1 | 0.0 |
| Cc1nc(NC(=O)c2ccccc2)sc1-c1csc(Nc2ccc(Cl)cc2Cl)n1 | 0.0 |
| COc1ccc2nc(NC(C)=O)sc2c1 | 0.0 |
| O=C1NC(=O)C(c2ccccc2[N+](=O)[O-])=C1Nc1ccc(O)c(Cl)c1 | 0.0 |
| COc1ccc(OC)c(Nc2nc(-c3sc(NC(=O)c4ccccc4)nc3C)cs2)c1 | 1.0 |
| O=c1c(-c2ccc(Cl)cc2)nc2cnc(N3CCNCC3)nc2n1Cc1ccc(F)cc1 | 1.0 |
| N#Cc1ccc(CN2CC3(CCN(C(=O)c4cccc(F)c4)CC3)C2)cc1 | 0.0 |
| COc1ccc(OC)c(C2C(C(=O)Nc3nc4ccccc4s3)=C(C)NC3=C2C(=O)CCC3)c1 (stereo not drawn) | 1.0 |
| NC(=NC1C2CC3CC(C2)CC1C3)Nc1ccc(I)cc1 (stereo not drawn) | 0.0 |
| NNC(=O)CCc1ccc2ccc3ccccc3c2c1 | 1.0 |
| CN(C)CCC=C1c2ccccc2CCc2ccccc21 | 0.0 |
| Cc1[nH]n(C(C)(C)C)c(=O)c1Sc1ccccc1 | 1.0 |
| CC(C)NC[C@H](O)c1cc(O)cc(O)c1 | 0.0 |

---

TARGET OR TEST SYSTEM: Cytochrome P450 2C9 (Homo sapiens)
EXPERIMENTAL DETAILS: Cytochrome panel assay with activity outcomes
CONDITION: recombinant CYP, pro-luciferin dealkylation, luminescence, p450-cyp2c9; series mostly up to 57.1 µM
Screen size: about 16,000 compounds; about 4,000 (25%) were called active. Another 26% or so got no clear call; they are omitted. Calls come from the whole dose curve; as a rule, active = well fitted curve in the direction sought with a large enough effect; inconclusive = small, poorly fitted or top-dose-only effect, or effect the other way; inactive = no such curve, though single readings can be large or run the other way. A selection follows. Numbered stars: 1 amine (or outer) side, 2 acyl side, 3 side chain; on linkers, the order of the positions; unused ones are H or OH. Bridge positions count the residues as written; N and C are the ends. Square brackets hold non-standard residues; d marks the D form. Peptide text beside a SMILES is read from it. I, II: the chains in the order shown. Actinocin(9to1) = Cc1c2oc3c(C)ccc(C(=O)[*:1])c3nc-2c(C(=O)[*:2])c(N)c1=O; aThr = C[C@H](O)[C@H](N)C(=O)O; NMeV = CN[C@H](C(=O)O)C(C)C; Sar = CNCC(=O)O
Possible outcomes: true (1) = active, false (0) = inactive

| COMPOUND | CLASS |
| --- | --- |
| CCn1c2ccccc2c2cnc(N=CN(C)C)c(C#N)c21 | true (1) |
| Cc1ccc(Oc2nc(-c3ccccc3)ncc2S(C)(=O)=O)cc1 | true (1) |
| NC[C@@H]1O[C@H](c2ccccc2)Cc2c1ccc(O)c2O | true (1) |
| CCOc1ccc(Cl)cc1CNCCNCC(C)O (centres undefined) | false (0) |
| NC[C@@H]1O[C@H](C23CC4CC(CC(C4)C2)C3)Cc2c1ccc(O)c2O | false (0) |
| Nc1[nH]nc2nc3ccccc3nc12 | true (1) |
| O=C(COc1ccc(/C=N/NC(=O)c2ccccc2)cc1)Nc1ccc([N+](=O)[O-])cc1 | false (0) |
| CC(C)Cn1c(-c2nn(C)cc2Cl)n[nH]c1=S | false (0) |
| O=C(Nc1ccn(Cc2ccccc2F)n1)c1ccc(COc2cc(Cl)ccc2Cl)o1 | true (1) |
| O=C(Nc1cccc(NC(=O)N2CCN(c3ccccc3)CC2)c1)N1CCN(c2ccccc2)CC1 | true (1) |
| Cn1ncc(Cl)c1C(=O)Nc1cccnc1 | false (0) |
| NS(=O)(=O)c1cc2c(cc1Cl)N[C@@H](C(Cl)Cl)NS2(=O)=O | false (0) |
| O=c1[nH]c(=O)c2nc3ccccc3nc2[nH]1 | false (0) |
| CCOC(=O)c1cnc(-c2ccccc2)nc1Oc1ccccc1 | true (1) |
| Cc1cc(C)cc(C(=O)N(C)[C@H](Cc2ccc(-c3ccccc3)cc2)C(=O)N[C@@H](Cc2c[nH]c3ccccc23)C(=O)O)c1 | false (0) |
| CC(C)n1c(N2CCN(C(=O)Nc3ccccc3)CC2)nc2ccccc21 | true (1) |
| CC(=O)N(CC(O)CN(C(C)=O)c1c(I)c(C(=O)NC[C@@H](O)CO)c(I)c(C(=O)NC[C@@H](O)CO)c1I)c1c(I)c(C(=O)NC[C@@H](O)CO)c(I)c(C(=O)NC[C@@H](O)CO)c1I | false (0) |
| CC(C)CNC(=O)c1ccc(COc2ccc(Cl)cc2Cl)o1 | true (1) |
| COc1ccc(NC2=NC(=S)N(c3ccc(C)cc3)C23CCCCC3)cc1 | false (0) |
| CC(=O)COC(=O)CCc1nc2ccccc2[nH]c1=O | false (0) |
| COc1cccc(-c2cc(C(=O)N/N=C/c3ccc(OC)c(COC(C)=O)c3)c3ccccc3n2)c1 | true (1) |
| Cc1c2oc3c(C)ccc(C(=O)N[C@@H]4C(=O)N[C@@H](C(C)C)C(=O)N5CCC[C@@H]5C(=O)N(C)CC(=O)N(C)[C@@H](C(C)C)C(=O)O[C@H]4C)c3nc-2c(C(=O)N[C@@H]2C(=O)N[C@@H](C(C)C)C(=O)N3CCC[C@@H]3C(=O)N(C)CC(=O)N(C)[C@@H](C(C)C)C(=O)O[C@H]2C)c(N)c1=O (I: [aThr]V[dP][Sar][NMeV] / II: [aThr]V[dP][Sar][NMeV]; ester I:1-I:C, II:1-II:C; linker I:N-II:N via Actinocin(9to1)) | false (0) |
| CC(=O)NNC(=O)CCC(=O)Nc1ccccc1 | false (0) |
| Cn1c(-c2sc(=S)n(-c3ccccc3)c2N)nc2ccccc21 | true (1) |
| Cc1ccc(C(=O)c2ccc(CC(=O)O)n2C)cc1 | false (0) |
| O=C(Nc1ccccc1)N1CCC2(CCNCC2)CC1 | false (0) |
| O=C(Nc1cccc(F)c1)N1CCCC2(CCN(C(=O)c3cc(C(F)(F)F)cc(C(F)(F)F)c3)CC2)C1 | false (0) |
| CCOC(=O)c1cccc(NC(=O)COc2ccc([N+](=O)[O-])cc2)c1 | true (1) |
| N#C/C(=C\c1cc([N+](=O)[O-])c(N2CCCCC2)cc1N1CCCCC1)c1nn(-c2ccccc2)c(N)c1C#N | true (1) |
| Cc1ccc(C(=O)Nc2cc(Cl)ccc2OC(=O)c2ccc(C)cc2)cc1 | true (1) |
| COC(=O)Nc1nc2ccc(SC(C)C)cc2[nH]1 | false (0) |
| CC(C)Nc1nc(NC(C)(C)C)nc(Oc2ccc(=O)n(-c3ccccc3)n2)n1 | true (1) |
| Cc1cccc(N2CCN(c3ccc(NC(=O)/C=C(/C(=O)O)c4ccccc4)cc3)CC2)c1 | false (0) |
| CC(=O)N1CCC2(CC1)CCN(C(=O)Nc1cccc(F)c1)CC2 | false (0) |
| Cn1c(SCc2nc3ccccc3n2CCO)nc2ccccc21 | false (0) |
| CC(=O)NC1=NN(c2ccccc2)C(=O)C1 | false (0) |
| COc1cccc(N(C(=O)Cn2nnc(-c3ccc(C)cc3)n2)C(C(=O)NC(C)(C)C)c2c[nH]c3ccccc23)c1 (centres undefined) | true (1) |
| CN(C)C(N)=NCCC[C@H](N)C(=O)O | false (0) |
| CC(C)CO[C@H](c1ccc2c(c1)OCO2)[C@H](C)Br | true (1) |
